TGT: MBP-FoxP3dN (Mus musculus, UniProt Q99JB6 188-423)
Sequence: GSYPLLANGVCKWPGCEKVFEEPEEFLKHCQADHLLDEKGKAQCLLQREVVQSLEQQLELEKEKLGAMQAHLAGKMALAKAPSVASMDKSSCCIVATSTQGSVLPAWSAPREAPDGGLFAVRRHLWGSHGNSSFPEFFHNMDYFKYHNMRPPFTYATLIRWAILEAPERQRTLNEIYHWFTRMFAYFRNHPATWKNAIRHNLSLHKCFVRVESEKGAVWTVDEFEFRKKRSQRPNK
ASSAY_REMARKS: PD-seq (MBP pull-down with sequencing); 20 mM Tris-HCl pH 7.5, 100 mM NaCl, 1.5 mM MgCl2, 0.4 uM protein, 0.1 uM dsDNA library, 30 min, room temperature, amylose pull-down; high values mean tight binding
REPORTED_CONDITIONS: protein: recombinant; tags: His6-MBP; chain copies: 2; dsDNA, one strand shown
Whole data set: some 16,000 sequences, median “rpm ratio (pull-down/input)” near 0.5, cut for the highest 2% near 5.5. What follows is part of a selection rich in the highest values, with near analogues and random picks from the rest.
VALUE_KIND: binding signal

seq=GATGATTGTTCTCCCAGCTGATGAATTAAATGCATCGAGTAAACAAATTTTCCTAATCTTTCTGTTCAAGCGCCATCTAC measured_result="2.36 RPM ratio (pull-down/input)"
seq=GATGATTGTTCTCCCAGCTGATGAATTAATGAATTCGAGTAAACAAATTTTCCTAATCTTTCTGTTCAAGCGCCATCTAC measured_result="0.682 RPM ratio (pull-down/input)"
seq=GATGATTGTTCTCCCAGCTGATGAATTAATGCATTCGAGTAAACAAATTTTCCTAATCTTTCTGTTCAAGCGCCATCTAC measured_result="6.89 RPM ratio (pull-down/input)"
seq=GATGATTGTTCTCCCAGCTGATGAATTGCATCATTCGAGTAAACAAATTTTCCTAATCTTTCTGTTCAAGCGCCATCTAC measured_result="5.15 RPM ratio (pull-down/input)"
seq=GATGATTGTTCTCCCAGCTGATGAATTGTTCGACTCGAGTAAACAAATTTTCCTAATCTTTCTGTTCAAGCGCCATCTAC measured_result="0.414 RPM ratio (pull-down/input)"
seq=GATGATTGTTCTCCCAGCTGATGAATTCGATGCATCGAGTAAACAAATTTTCCTAATCTTTCTGTTCAAGCGCCATCTAC measured_result="1.84 RPM ratio (pull-down/input)"
seq=GATGATTGTTCTCCCAGCTGATGAATTACGAGGTTCGAGTAAACAAATTTTCCTAATCTTTCTGTTCAAGCGCCATCTAC measured_result="0.392 RPM ratio (pull-down/input)"

* * *

TGT: MBP-FoxP3dN (Mus musculus, UniProt Q99JB6 188-423)
Sequence: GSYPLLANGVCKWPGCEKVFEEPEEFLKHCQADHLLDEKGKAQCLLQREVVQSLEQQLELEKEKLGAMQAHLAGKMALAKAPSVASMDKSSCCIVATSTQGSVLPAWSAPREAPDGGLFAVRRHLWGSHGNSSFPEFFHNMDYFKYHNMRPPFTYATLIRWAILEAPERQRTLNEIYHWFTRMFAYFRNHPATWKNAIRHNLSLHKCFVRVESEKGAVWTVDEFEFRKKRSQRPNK
ASSAY_REMARKS: PD-seq (MBP pull-down with sequencing); 20 mM Tris-HCl pH 7.5, 100 mM NaCl, 1.5 mM MgCl2, 0.4 uM protein, 0.1 uM dsDNA library, 30 min, room temperature, amylose pull-down; high values mean tight binding
REPORTED_CONDITIONS: protein: recombinant; tags: His6-MBP; chain copies: 2; dsDNA, one strand shown
Over roughly 16,000 sequences, “rpm ratio (pull-down/input)” has its median near 0.5; the highest 2% begin near 5.5. Shown is part of a subset that was picked to be rich in the highest values.
VALUE_KIND: binding signal

seq=GATGATTGTTCTCCCAGCTGATGAATTAGCCGACTCGAGTAAACAAATTTTCCTAATCTTTCTGTTCAAGCGCCATCTAC value_kind="binding signal" measured_result="0.205 RPM ratio (pull-down/input)"
seq=GATGATTGTTCTCCCAGCTGATGAATTTTTTGTGTCGAGTAAACAAATTTTCCTAATCTTTCTGTTCAAGCGCCATCTAC value_kind="binding signal" measured_result="0.531 RPM ratio (pull-down/input)"
seq=GATGATTGTTCTCCCAGCTGATGAATTCACGTGTTCGAGTAAACAAATTTTCCTAATCTTTCTGTTCAAGCGCCATCTAC value_kind="binding signal" measured_result="0.58 RPM ratio (pull-down/input)"
seq=GATGATTGTTCTCCCAGCTGATGAATTCTTTGTGTCGAGTAAACAAATTTTCCTAATCTTTCTGTTCAAGCGCCATCTAC value_kind="binding signal" measured_result="0.573 RPM ratio (pull-down/input)"
seq=GATGATTGTTCTCCCAGCTGATGAATTTGCCTCTTCGAGTAAACAAATTTTCCTAATCTTTCTGTTCAAGCGCCATCTAC value_kind="binding signal" measured_result="2.52 RPM ratio (pull-down/input)"
seq=GATGATTGTTCTCCCAGCTGATGAATTAAGGGCCTCGAGTAAACAAATTTTCCTAATCTTTCTGTTCAAGCGCCATCTAC value_kind="binding signal" measured_result="0.451 RPM ratio (pull-down/input)"
seq=GATGATTGTTCTCCCAGCTGATGAATTTGCCTCCTCGAGTAAACAAATTTTCCTAATCTTTCTGTTCAAGCGCCATCTAC value_kind="binding signal" measured_result="2.37 RPM ratio (pull-down/input)"
seq=GATGATTGTTCTCCCAGCTGATGAATTGCGAATCTCGAGTAAACAAATTTTCCTAATCTTTCTGTTCAAGCGCCATCTAC value_kind="binding signal" measured_result="2.16 RPM ratio (pull-down/input)"
seq=GATGATTGTTCTCCCAGCTGATGAATTCTTTGCCTCGAGTAAACAAATTTTCCTAATCTTTCTGTTCAAGCGCCATCTAC value_kind="binding signal" measured_result="0.403 RPM ratio (pull-down/input)"
seq=GATGATTGTTCTCCCAGCTGATGAATTTGTTGCCTCGAGTAAACAAATTTTCCTAATCTTTCTGTTCAAGCGCCATCTAC value_kind="binding signal" measured_result="7.02 RPM ratio (pull-down/input)"
seq=GATGATTGTTCTCCCAGCTGATGAATTGATAGATTCGAGTAAACAAATTTTCCTAATCTTTCTGTTCAAGCGCCATCTAC value_kind="binding signal" measured_result="0.495 RPM ratio (pull-down/input)"
seq=GATGATTGTTCTCCCAGCTGATGAATTCCGACGATCGAGTAAACAAATTTTCCTAATCTTTCTGTTCAAGCGCCATCTAC value_kind="binding signal" measured_result="0.285 RPM ratio (pull-down/input)"
seq=GATGATTGTTCTCCCAGCTGATGAATTGACAATGTCGAGTAAACAAATTTTCCTAATCTTTCTGTTCAAGCGCCATCTAC value_kind="binding signal" measured_result="0.506 RPM ratio (pull-down/input)"
seq=GATGATTGTTCTCCCAGCTGATGAATTATAGAACTCGAGTAAACAAATTTTCCTAATCTTTCTGTTCAAGCGCCATCTAC value_kind="binding signal" measured_result="0.249 RPM ratio (pull-down/input)"
seq=GATGATTGTTCTCCCAGCTGATGAATTGTTTGCCTCGAGTAAACAAATTTTCCTAATCTTTCTGTTCAAGCGCCATCTAC value_kind="binding signal" measured_result="5.67 RPM ratio (pull-down/input)"

* * *

As shown below, each of these sequences has a reported binding signal value.
TGT: MBP-FoxP3dN (Mus musculus, UniProt Q99JB6 188-423)
Sequence: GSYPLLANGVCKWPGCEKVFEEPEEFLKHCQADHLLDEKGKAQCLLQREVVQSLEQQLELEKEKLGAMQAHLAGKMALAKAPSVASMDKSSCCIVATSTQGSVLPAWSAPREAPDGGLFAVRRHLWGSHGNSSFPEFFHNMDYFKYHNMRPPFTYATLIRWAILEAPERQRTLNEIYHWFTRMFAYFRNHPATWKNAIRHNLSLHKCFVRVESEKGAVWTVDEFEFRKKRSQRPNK
ASSAY_REMARKS: PD-seq (MBP pull-down with sequencing); 20 mM Tris-HCl pH 7.5, 100 mM NaCl, 1.5 mM MgCl2, 0.4 uM protein, 0.1 uM dsDNA library, 30 min, room temperature, amylose pull-down; high values mean tight binding
REPORTED_CONDITIONS: protein: recombinant; tags: His6-MBP; chain copies: 2; dsDNA, one strand shown
Over roughly 16,000 sequences, “rpm ratio (pull-down/input)” has its median near 0.5; the highest 2% begin near 5.5. The full list was thinned out, with the highest values kept by preference.
VALUE_KIND: binding signal

seq=GATGATTGTTCTCCCAGCTGATGAATTTGCTTCTTCGAGTAAACAAATTTTCCTAATCTTTCTGTTCAAGCGCCATCTAC tgt="MBP-FoxP3dN (Mus musculus, UniProt Q99JB6 188-423)" measured_result="2.97 RPM ratio (pull-down/input)"
seq=GATGATTGTTCTCCCAGCTGATGAATTTTGCTTCTCGAGTAAACAAATTTTCCTAATCTTTCTGTTCAAGCGCCATCTAC tgt="MBP-FoxP3dN (Mus musculus, UniProt Q99JB6 188-423)" measured_result="2.58 RPM ratio (pull-down/input)"
seq=GATGATTGTTCTCCCAGCTGATGAATTTTTTGCTTCGAGTAAACAAATTTTCCTAATCTTTCTGTTCAAGCGCCATCTAC tgt="MBP-FoxP3dN (Mus musculus, UniProt Q99JB6 188-423)" measured_result="0.306 RPM ratio (pull-down/input)"
seq=GATGATTGTTCTCCCAGCTGATGAATTTGCTTACTCGAGTAAACAAATTTTCCTAATCTTTCTGTTCAAGCGCCATCTAC tgt="MBP-FoxP3dN (Mus musculus, UniProt Q99JB6 188-423)" measured_result="6.78 RPM ratio (pull-down/input)"
seq=GATGATTGTTCTCCCAGCTGATGAATTGCTTTACTCGAGTAAACAAATTTTCCTAATCTTTCTGTTCAAGCGCCATCTAC tgt="MBP-FoxP3dN (Mus musculus, UniProt Q99JB6 188-423)" measured_result="1.22 RPM ratio (pull-down/input)"
seq=GATGATTGTTCTCCCAGCTGATGAATTGCTTGTCTCGAGTAAACAAATTTTCCTAATCTTTCTGTTCAAGCGCCATCTAC tgt="MBP-FoxP3dN (Mus musculus, UniProt Q99JB6 188-423)" measured_result="1.71 RPM ratio (pull-down/input)"
seq=GATGATTGTTCTCCCAGCTGATGAATTGTTTGCTTCGAGTAAACAAATTTTCCTAATCTTTCTGTTCAAGCGCCATCTAC tgt="MBP-FoxP3dN (Mus musculus, UniProt Q99JB6 188-423)" measured_result="6.19 RPM ratio (pull-down/input)"
